- TEST_PROTOCOL: Solubility in water
- Assay type: physicochemical
- APPLIED_CONDITIONS: 20 °C, read-out: Löslichkeit in Wasser

{"COMPOUND": "CN(C)c1ccc([N+]#N)cc1 [reference compound]", "solubility (µg/mL)": 3800}
